Tested on: Staphylococcus aureus
Experiment: Antimicrobial activity against vancomycin-intermediate Staphylococcus aureus by broth microdilution method
Format: functional
Field: MIC90. Provide a value for each of the compounds that follow.
// return numeric value only (unit: µg/mL, not printed)

For "C[C@H]1COc2c(N3CCN(C)CC3)c(F)cc3c(=O)c(C(=O)O)cn1c23.C[C@H]1COc2c(N3CCN(C)CC3)c(F)cc3c(=O)c(C(=O)O)cn1c23.O" , what is its reported MIC90?
32

What about this compound? "CCO/N=C(\C(=O)N[C@@H]1C(=O)N2C(C(=O)[O-])=C(Sc3nc(-c4cc[n+](C)cc4)cs3)CS[C@H]12)c1nsc(NP(=O)(O)O)n1"
1

* * *

System: Providencia stuartii
Test: Antimicrobial activity against Proteus stuartii by broth microdilution method
Type: functional
OBSERVATION_TYPE: MIC50 (µg/mL)
Write the number in µg/mL without appending the unit.

MIC50 for C[C@@H](O)[C@H]1C(=O)N2C(C(=O)O)=C(SCCNC=N)C[C@H]12 [IMIPENEM ANHYDROUS] ?
2

Same question for "CCO/N=C(\C(=O)N[C@@H]1C(=O)N2C(C(=O)[O-])=C(Sc3nc(-c4cc[n+](C)cc4)cs3)CS[C@H]12)c1nsc(NP(=O)(O)O)n1" please.
1

Item: "C[C@H]1COc2c(N3CCN(C)CC3)c(F)cc3c(=O)c(C(=O)O)cn1c23.C[C@H]1COc2c(N3CCN(C)CC3)c(F)cc3c(=O)c(C(=O)O)cn1c23.O"
0.12

// query: "CO/N=C(\C(=O)N[C@@H]1C(=O)N2C(C(=O)O)=C(CSc3nc(=O)c(O)nn3C)CS[C@H]12)c1csc(N)n1"
0.06

* * *

Tested on: Klebsiella aerogenes
Assay: Antimicrobial activity against ESBL-negative Enterobacter aerogenes by broth microdilution method
Assay type: functional
Would you mind telling me the reported MIC50 of each entry?
// units = µg/mL; emit number, no label

Form field - read-out: MIC50; system: Klebsiella aerogenes; submitted item: CO/N=C(\C(=O)N[C@@H]1C(=O)N2C(C(=O)O)=C(CSc3nc(=O)c(O)nn3C)CS[C@H]12)c1csc(N)n1 [CEFTRIAXONE]
0.12

And then C[C@H]1COc2c(N3CCN(C)CC3)c(F)cc3c(=O)c(C(=O)O)cn1c23.C[C@H]1COc2c(N3CCN(C)CC3)c(F)cc3c(=O)c(C(=O)O)cn1c23.O [LEVOFLOXACIN] , what is it?
0.06

Also C[C@@H](O)[C@H]1C(=O)N2C(C(=O)O)=C(SCCNC=N)C[C@H]12 [IMIPENEM ANHYDROUS] , if possible.
1

How about CCO/N=C(\C(=O)N[C@@H]1C(=O)N2C(C(=O)[O-])=C(Sc3nc(-c4cc[n+](C)cc4)cs3)CS[C@H]12)c1nsc(NP(=O)(O)O)n1 [CEFTAROLINE FOSAMIL] ?
0.12

* * *

Test system: Enterococcus faecium
Assay: Antimicrobial activity against vancomycin-susceptible Enterococcus faecium by broth microdilution method
Format: functional
OBSERVATION_TYPE: MIC90

Reported MIC90, molecule "CO/N=C(\C(=O)N[C@@H]1C(=O)N2C(C(=O)O)=C(CSc3nc(=O)c(O)nn3C)CS[C@H]12)c1csc(N)n1" : ____
> 32 µg/mL

Entry to check: C[C@@H](O)[C@H]1C(=O)N2C(C(=O)O)=C(SCCNC=N)C[C@H]12 [IMIPENEM ANHYDROUS]
> 32 µg/mL

Consider next the molecule "C[C@H]1COc2c(N3CCN(C)CC3)c(F)cc3c(=O)c(C(=O)O)cn1c23.C[C@H]1COc2c(N3CCN(C)CC3)c(F)cc3c(=O)c(C(=O)O)cn1c23.O" in the same way.
> 32 µg/mL

Moving on to "CCO/N=C(\C(=O)N[C@@H]1C(=O)N2C(C(=O)[O-])=C(Sc3nc(-c4cc[n+](C)cc4)cs3)CS[C@H]12)c1nsc(NP(=O)(O)O)n1"
16 µg/mL

These entries and their values trace back to ChEMBL document CHEMBL1629657.
